Experiment: In-vivo pharmacokinetic analysis (beagle), single oral administration
Conditions: dog, plasma, beagles, Docetaxel PO 50 mg/kg
Source text: The compositions of Example 83 and Comparative Example 1 were single orally administered to beagles to obtain plasma drug concentration information. The results are shown in Tables 12 and 13 below and FIGS. 8 and 9.
RECORDED ENDPOINT: AUC(0-t) (ng·h/mL)
Answer with a number only, understood to be in ng·h/mL.

The molecule identified as CC(=O)O[C@@]12CO[C@@H]1C[C@H](O)[C@@]1(C)C(=O)[C@H](O)C3=C(C)[C@@H](OC(=O)[C@H](O)[C@@H](NC(=O)OC(C)(C)C)c4ccccc4)C[C@@](O)([C@@H](OC(=O)c4ccccc4)[C@H]21)C3(C)C [Comparative Example 1, Docetaxel] registered its AUC(0-t) at 1.86
